Entry source: patent US20250263490A1

tgt: T1, recombinant human domain 1-3His6 of the cation-independent mannose-6-phosphate receptor (human, UniProt P11717 41-467)
T1 construct: Biotinylated (NHS-PEG4-biotin) for BLI; Glycosylated; also called hDom1-3His6; hCI-M6PRD1-D3
experiment: ELISA on coated antigen (100 ng), anti-VHH-HRP, A450
# Lookup of reported EC50 (read off the curve) keyed by entry

Reference set, count: 4
Q: In one line, give reported EC50 (read off the curve) of the entry anti-CI-M6PR VHH8 (VHH, His6-tagged (Pichia pastoris)) VHH: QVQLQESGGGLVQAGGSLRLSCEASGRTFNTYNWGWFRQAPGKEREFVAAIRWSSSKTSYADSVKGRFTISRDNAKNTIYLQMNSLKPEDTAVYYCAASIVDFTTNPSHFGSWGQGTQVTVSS .
Result: ~3 nM

Q: Assign EC50 (read off the curve) to the following record: humanized VHH8 variant VHH8hWN (VHH, His6-tagged, made in HEK293S) VHH: DVQLVESGGGLVQPGGSLRLSCAASGRTFNTYNWGWFRQAPGKEREFVAAIRWSSSKTSYADSVKGRFTISRDNAKNTIYLQMNSLRPEDTAVYYCAASIVDFTTNPSHFGSWGQGTLVTVSS
Result: ~3 nM

Q: Consider the binder anti-CI-M6PR VHH5 (VHH, His6-tagged; made in Pichia pastoris, later also in E. coli WK6) VHH: QVQLQESGGGLVQAGGSLKLSCAAAGRTFSRLAMGWFRQAPGKEREFVAAISENGDSIHYSDSVKGRFAVSRDNAKNTVYLQMNSLKPEDTAIYYCAADRAAYYCSGSGCYPSRAPAAASYDYWGQGTQVTVSS and give its recorded EC50 (read off the curve).
Result: ~2 nM

Q: Give a short answer stating reported EC50 (read off the curve) for humanized VHH7 variant VHH7hWN (VHH, His6-tagged, made in HEK293S) VHH: DVQLVESGGGLVQPGGSLRLSCAASGIIFSDNRMDWYRQAPGKQREWVATLASYGWKTYADSVKGRFTISRDNAKNTVYLQMNSLRPEDTAVYYCKASSPVLNDIWGQGTLVTVSS .
Result: ~0.5 nM

Further cases:
Q: Answer with reported EC50 (read off the curve) of anti-CI-M6PR VHH7 (VHH, His6-tagged (Pichia pastoris)) VHH: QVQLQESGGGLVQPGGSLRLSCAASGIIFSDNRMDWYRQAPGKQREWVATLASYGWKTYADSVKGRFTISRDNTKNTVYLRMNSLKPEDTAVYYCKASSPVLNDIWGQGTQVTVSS
Result: ~0.3 nM
